Test details: yeast display, Sf9 membrane polyspecificity reagent, FACS + sequencing; frameworks hold sequencing errors
Parameter: polyreactivity (PSR sort gate)

Sequence text | polyreactivity (PSR sort gate)
QVQLVESGGGLVQAGGSLRLSCAASARIFYAYTMGWYRQAPGKERELVAAISGSGSTYYADSVKGRFTISRDNAMNTFFLQMNSLKPEDTAVYYCAADVTGGRKYDYWGQGTEVTVSS | low polyreactivity
QVQLVESGGGLVQAGGSLRLSCAASGRTVGYYGMGWYRQAPGKERELVAAITGSGGSTYYADSVKGRFTISRDNAKNTVYLQMNSLKPEDTAVYYCAATYLSRWTLYDYWGQGTQVTVSS | high polyreactivity
QVQLVESGGGLVQAGGSLRLSCAASGRTFYVNDMGWYRQAPGKERELVAAISYRGGSTYYADSVKGRFTISRDNAKNTVYLQMNSLKPEDTAVYYCAAELTYRYRFYYLYSMYYWGQGTQVTVSS | low polyreactivity
QVQLEESGAALVQAGGSLRLSCAAMGWYRQSPGKERELLATITWSGGSTYYADSVKGRFTISRDNAKNTVYLQMNSLKPEDTAVYYCTARATLLSPANTIRGYDYWGQGTQVTVSS | low polyreactivity
QVQLVESGGGLVQAGGSLRLSCAASGSISSQNAMVSYRQAPGKERELVAAISWIGGSTYYADSVKGRFTISRDFAKNTVYLQMNSLKPEDTAVYYCAKDRARGFKYYYWGQGTQVTVSS | low polyreactivity

If you can, please state the reported polyreactivity (PSR sort gate) value of QVQLVESGGGLVQAGGSLRLSCAASGRIIGRYVRGWYRQAPGKERELVAAITRGGSTNYADSVKGRYTISRDNAKNTVYLQMNSLKPEDTAVYYCARAYSTVNRYSMYYWGQGTQVTVSS .
high polyreactivity

If you can, please state the reported polyreactivity (PSR sort gate) value of QVQLVESGGGLVQAGGSLRLICAASGRILPLYAMGWYRQAPGKERELVADITGSDGSTYYADSVKGRFTISRDNAKNTVYLQMNSLKPEDTAVYYCATDAIGRTPSDPWDYYYWGQGTQVTVSS .
low polyreactivity

Entry source: the nanobody polyreactivity screen of Harvey et al. (2022)
